Data credit: PubChem BioAssay AID1259407

- Test system: CCRIS mutagenicity, Ames/micronucleus/aberration tests
- measurement.description: CCRIS mutagenicity studies
- condition.parameters: Test System: AMES SALMONELLA TYPHIMURIUM; Strain/Indicator: TA102; Metabolic Activation: NONE; Method: PREINCUBATION
Calls of active or inactive are those of the source. How the calls were made is not given here.
Can you answer with just one of these options? yes (1) (active), no (0) (inactive)

• CCCCC[N+](=O)[O-] = no (0)
• Cc1cccs1 = no (0)
• C=C(C)CCl = no (0)
• Cc1ccc2c(C)c3ccc4ccccc4c3nc2c1 = yes (1)
• CC1=C(/C=C/C(C)=C/C=C/C(C)=C/C=C/C=C(C)/C=C/C=C(C)/C=C/C2=C(C)CCCC2(C)C)C(C)(C)CCC1 = no (0)

Per the assay record, what outcome was assigned to `O=C1CCCCCCCCCCCCCCO1` ? no (0)

Also need `O=C1c2ccccc2C(=O)c2c(O)ccc(O)c21` , thanks. yes (1)

Also need `CCCOC(=O)c1cc(O)c(O)c(O)c1` , thanks. no (0)

Also need `CCCCOCCOCCOCc1cc2c(cc1CCC)OCO2` , thanks. no (0)

Also need `O=C1c2cccc(O)c2C(=O)c2c(O)cccc21` , thanks. yes (1)
